Target: rat Mdr1a (Rattus norvegicus, UniProt Q6PSM0)
Sequence (Q6PSM0 1-1272): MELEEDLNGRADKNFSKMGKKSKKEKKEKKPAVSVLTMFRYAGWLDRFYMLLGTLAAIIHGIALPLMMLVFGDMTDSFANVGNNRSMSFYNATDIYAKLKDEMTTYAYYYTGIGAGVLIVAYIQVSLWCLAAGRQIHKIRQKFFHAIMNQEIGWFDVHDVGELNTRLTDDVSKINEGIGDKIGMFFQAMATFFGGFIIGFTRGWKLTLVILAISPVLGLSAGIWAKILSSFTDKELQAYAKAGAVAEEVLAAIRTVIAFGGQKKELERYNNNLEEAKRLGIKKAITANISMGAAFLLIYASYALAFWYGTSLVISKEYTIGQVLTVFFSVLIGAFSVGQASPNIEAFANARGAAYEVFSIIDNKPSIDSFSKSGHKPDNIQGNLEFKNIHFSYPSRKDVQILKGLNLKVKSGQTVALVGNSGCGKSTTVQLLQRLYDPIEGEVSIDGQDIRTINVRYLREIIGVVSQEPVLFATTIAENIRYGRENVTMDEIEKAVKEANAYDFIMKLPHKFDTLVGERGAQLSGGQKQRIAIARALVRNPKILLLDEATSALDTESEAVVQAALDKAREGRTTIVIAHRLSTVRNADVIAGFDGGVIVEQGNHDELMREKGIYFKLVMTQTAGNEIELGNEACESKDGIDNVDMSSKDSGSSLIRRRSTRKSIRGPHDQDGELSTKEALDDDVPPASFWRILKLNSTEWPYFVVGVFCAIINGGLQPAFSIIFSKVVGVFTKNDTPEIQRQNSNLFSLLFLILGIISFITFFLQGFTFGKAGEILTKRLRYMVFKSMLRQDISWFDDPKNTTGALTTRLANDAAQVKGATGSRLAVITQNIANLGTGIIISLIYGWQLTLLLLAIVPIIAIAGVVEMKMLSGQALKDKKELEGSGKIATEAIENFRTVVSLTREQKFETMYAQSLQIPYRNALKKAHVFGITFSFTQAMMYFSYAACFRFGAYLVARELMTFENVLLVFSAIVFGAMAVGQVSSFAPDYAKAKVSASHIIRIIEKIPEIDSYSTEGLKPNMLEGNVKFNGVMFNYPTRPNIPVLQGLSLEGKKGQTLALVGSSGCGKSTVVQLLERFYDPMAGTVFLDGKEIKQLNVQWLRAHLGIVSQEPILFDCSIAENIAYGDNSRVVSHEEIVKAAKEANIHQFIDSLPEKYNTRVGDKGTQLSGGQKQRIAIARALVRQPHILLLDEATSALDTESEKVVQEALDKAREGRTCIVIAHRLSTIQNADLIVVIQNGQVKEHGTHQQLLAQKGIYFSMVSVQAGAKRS
Experiment: Bidirectional transport assay, efflux ratio in Abcb1KO-MDCKII rMDR1 cells
Conditions: rat, pH 7.4
Would you mind labelling by efflux ratio at 120 min, 1 µM? At or over 6 is Condition met, under is Condition not met.

Below are worked cases with known answers.
1) Cn1c(=O)c2c(ncn2C)n(C)c1=O = Condition not met
2) Cc1ccc(NC(=O)c2ccc(CN3CCN(C)CC3)cc2)cc1Nc1nccc(-c2cccnc2)n1 = Condition met
3) CCN(CC)CCNC(=O)c1cc(Cl)c(N)cc1OC [Metoclopramide] = Condition not met
4) CC[C@H]1OC(=O)[C@H](C)[C@@H](O[C@H]2C[C@@](C)(OC)[C@@H](O)[C@H](C)O2)[C@H](C)[C@@H](O[C@@H]2O[C@H](C)C[C@H](N(C)C)[C@H]2O)[C@](C)(OC)C[C@@H](C)C(=O)[C@H](C)[C@@H](O)[C@]1(C)O = Condition met
5) Cc1cccc(C)c1OCC(C)N (stereo not shown) = Condition not met

We now examine a further compound.
Challenge: Hello, I need to know if "C[C@]12C=CC(=O)C=C1CC[C@@H]1[C@@H]2C(=O)C[C@@]2(C)[C@H]1CC[C@]2(O)C(=O)CO" has measured efflux ratio at 120 min, 1 µM not below 6. Thanks!
Response given: Condition met

###

Molecular target: human MDR1 (Homo sapiens)
Sequence (P08183 whole entry): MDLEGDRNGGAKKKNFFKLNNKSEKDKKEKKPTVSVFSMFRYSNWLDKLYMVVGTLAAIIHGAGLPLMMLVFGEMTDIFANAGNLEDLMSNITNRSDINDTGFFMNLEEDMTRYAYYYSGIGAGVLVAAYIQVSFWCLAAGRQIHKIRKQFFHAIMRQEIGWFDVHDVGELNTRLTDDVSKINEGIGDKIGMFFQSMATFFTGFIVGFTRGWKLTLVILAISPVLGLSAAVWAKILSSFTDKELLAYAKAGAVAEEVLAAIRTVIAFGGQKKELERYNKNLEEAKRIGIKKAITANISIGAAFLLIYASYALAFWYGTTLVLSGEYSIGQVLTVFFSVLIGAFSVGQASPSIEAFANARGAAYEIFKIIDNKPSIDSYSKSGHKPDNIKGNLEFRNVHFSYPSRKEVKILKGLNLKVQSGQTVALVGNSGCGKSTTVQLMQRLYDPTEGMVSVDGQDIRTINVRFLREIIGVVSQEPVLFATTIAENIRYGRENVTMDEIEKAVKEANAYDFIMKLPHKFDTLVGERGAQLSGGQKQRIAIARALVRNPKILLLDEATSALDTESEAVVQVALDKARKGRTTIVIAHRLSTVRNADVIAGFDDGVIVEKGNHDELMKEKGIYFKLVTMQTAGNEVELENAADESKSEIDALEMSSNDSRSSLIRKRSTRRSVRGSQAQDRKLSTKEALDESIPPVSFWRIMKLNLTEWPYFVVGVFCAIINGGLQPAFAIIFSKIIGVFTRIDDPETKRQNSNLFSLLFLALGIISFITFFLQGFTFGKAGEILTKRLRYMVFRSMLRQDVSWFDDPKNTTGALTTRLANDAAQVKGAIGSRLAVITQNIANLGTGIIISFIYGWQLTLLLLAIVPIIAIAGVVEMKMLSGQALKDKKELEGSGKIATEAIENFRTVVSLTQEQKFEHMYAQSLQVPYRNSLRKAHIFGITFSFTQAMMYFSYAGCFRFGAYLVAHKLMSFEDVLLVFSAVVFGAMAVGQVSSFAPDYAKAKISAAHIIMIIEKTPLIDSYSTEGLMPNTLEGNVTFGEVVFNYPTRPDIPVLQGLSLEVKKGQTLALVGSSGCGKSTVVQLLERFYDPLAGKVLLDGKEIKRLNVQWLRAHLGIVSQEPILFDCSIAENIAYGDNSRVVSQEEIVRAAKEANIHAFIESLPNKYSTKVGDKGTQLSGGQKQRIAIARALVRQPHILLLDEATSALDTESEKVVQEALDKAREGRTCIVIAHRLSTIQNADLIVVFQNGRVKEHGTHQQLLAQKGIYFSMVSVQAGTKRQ
Experiment: Bidirectional transport assay, efflux ratio in Abcb1KO-MDCKII hMDR1 cells
Conditions: human, MDCK-MDR1, pH 7.4
Overview of recorded efflux ratio at 120 min, 1 µM for various compounds
# respond with the number and nothing more

Check out these entries, answers already filled in.
1. CN(C)CCc1c[nH]c2ccc(C[C@H]3COC(=O)N3)cc12 = 4.3
2. Cc1cc(=O)n(-c2ccccc2)n1C [Antipyrine] = 0.75

We now examine a further compound.
Challenge: What value of efflux ratio at 120 min, 1 µM has been recorded for this entry: "OC[C@@H](O)[C@@H](O)[C@H](O)[C@H](O)CO"
Response given: 0.87

###

Overview of recorded efflux ratio at 120 min, 1 µM for various molecules
Target: human BCRP (Homo sapiens, UniProt Q9UNQ0)
Sequence (Q9UNQ0 whole entry): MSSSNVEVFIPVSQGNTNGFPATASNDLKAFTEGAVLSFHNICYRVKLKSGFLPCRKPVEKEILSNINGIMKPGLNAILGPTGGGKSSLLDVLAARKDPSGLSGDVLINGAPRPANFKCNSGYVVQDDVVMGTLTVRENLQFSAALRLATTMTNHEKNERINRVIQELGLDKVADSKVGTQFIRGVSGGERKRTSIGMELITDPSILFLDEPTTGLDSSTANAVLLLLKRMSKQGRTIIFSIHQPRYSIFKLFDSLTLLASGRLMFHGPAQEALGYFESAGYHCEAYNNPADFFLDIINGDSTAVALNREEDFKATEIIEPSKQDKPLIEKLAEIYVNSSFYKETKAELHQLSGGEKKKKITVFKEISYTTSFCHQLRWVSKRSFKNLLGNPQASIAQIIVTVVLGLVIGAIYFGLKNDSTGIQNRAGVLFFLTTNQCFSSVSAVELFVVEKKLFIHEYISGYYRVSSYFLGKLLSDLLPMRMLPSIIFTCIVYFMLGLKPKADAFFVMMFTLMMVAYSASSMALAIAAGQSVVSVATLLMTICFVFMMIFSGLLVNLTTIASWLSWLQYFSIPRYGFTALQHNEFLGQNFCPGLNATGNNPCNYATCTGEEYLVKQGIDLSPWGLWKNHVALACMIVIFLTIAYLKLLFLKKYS
Assay: Bidirectional transport assay, efflux ratio in MDCKII-BCRP cells
Details: human, pH 7.4

Check out these entries, answers already filled in.
1) O=C1c2c(O)ccc(O)c2C(=O)c2c(NCCNCCO)ccc(NCCNCCO)c21 = 55.6
2) CN(C)CCOC(C)(c1ccccc1)c1ccccn1 (stereo not shown) = 0.97
3) Cc1nc2n(c(=O)c1CCN1CCC(c3noc4cc(F)ccc34)CC1)CCCC2O (stereo not shown) = 5.82

We now examine a further molecule.
Challenge: What value of efflux ratio at 120 min, 1 µM has been recorded for this entry: "CC(C)(C)NC(=O)[C@@H]1CN(Cc2cccnc2)CCN1C[C@@H](O)C[C@@H](Cc1ccccc1)C(=O)N[C@H]1c2ccccc2C[C@H]1O"
Response given: 29.7

###

Target: human MDR1 (Homo sapiens)
Assay: Inhibition of 3H-digoxin or 3H-quinidine bidirectional transport in hMDR1 cells
Settings: Inhibition of digoxin transport IC50±SD, hMDR1, probe 3H-digoxin 1 µM, 120 min; IC50 from ER
attributeMeasured: IC50 (µM)
Only the number, expressed in µM, is required.

Challenge: What value of IC50 has been recorded for this entry: CCCc1nc2c(C)cc(-c3nc4ccccc4n3C)cc2n1Cc1ccc(-c2ccccc2C(=O)O)cc1 [Telmisartan]
Response given: 15.2

Challenge: What value of IC50 has been recorded for this entry: COc1ccccc1OCCNCC(O)COc1cccc2[nH]c3ccccc3c12 (stereo not shown) [Carvedilol]
Response given: 19.1

Challenge: What value of IC50 has been recorded for this entry: CN(C)C(=O)C(CCN1CCC(O)(c2ccc(Cl)cc2)CC1)(c1ccccc1)c1ccccc1 [Loperamide]
Response given: 38.3

###

Overview of recorded pIC50 for various compounds
Target: cynomolgus monkey Mdr1 (Macaca fascicularis, UniProt Q8HZQ6)
Sequence (Q8HZQ6 1-1283): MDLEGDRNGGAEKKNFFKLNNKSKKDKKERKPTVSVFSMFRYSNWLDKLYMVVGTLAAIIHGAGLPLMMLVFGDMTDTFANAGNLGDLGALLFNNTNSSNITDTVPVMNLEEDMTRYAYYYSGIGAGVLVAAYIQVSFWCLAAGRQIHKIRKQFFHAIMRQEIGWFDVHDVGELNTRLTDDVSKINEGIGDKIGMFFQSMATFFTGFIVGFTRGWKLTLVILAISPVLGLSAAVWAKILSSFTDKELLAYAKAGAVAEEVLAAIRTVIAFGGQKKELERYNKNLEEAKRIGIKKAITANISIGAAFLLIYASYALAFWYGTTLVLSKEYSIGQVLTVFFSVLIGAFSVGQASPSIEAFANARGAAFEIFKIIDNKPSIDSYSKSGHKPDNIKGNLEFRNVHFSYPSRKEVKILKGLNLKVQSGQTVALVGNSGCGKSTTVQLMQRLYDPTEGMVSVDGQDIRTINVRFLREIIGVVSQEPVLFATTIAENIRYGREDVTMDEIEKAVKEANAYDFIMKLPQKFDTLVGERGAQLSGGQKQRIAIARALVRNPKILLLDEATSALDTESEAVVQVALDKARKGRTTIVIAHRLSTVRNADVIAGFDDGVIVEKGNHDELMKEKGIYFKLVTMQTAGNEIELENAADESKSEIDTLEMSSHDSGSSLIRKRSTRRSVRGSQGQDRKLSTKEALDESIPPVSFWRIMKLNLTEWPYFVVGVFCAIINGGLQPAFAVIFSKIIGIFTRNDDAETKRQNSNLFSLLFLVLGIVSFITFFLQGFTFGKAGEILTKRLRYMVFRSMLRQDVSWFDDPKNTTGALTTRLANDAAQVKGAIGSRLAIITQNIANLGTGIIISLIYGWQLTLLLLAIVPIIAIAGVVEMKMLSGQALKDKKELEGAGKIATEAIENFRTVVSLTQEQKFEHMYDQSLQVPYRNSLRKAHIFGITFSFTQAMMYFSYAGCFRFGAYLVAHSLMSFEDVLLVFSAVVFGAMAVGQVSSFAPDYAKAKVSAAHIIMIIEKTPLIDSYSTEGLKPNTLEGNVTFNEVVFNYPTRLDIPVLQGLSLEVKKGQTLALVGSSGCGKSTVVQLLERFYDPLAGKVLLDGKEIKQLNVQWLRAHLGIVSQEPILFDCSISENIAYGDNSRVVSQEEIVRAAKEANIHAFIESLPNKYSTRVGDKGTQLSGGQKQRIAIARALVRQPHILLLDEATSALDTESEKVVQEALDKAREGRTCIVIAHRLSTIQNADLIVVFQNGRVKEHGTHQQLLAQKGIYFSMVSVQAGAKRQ
Experiment: cell-based
// pIC50 is dimensionless: -log10 of concentration (M)

Check out these entries, answers already filled in.
1) COc1ccccc1OCCNCC(O)COc1cccc2[nH]c3ccccc3c12 (stereo not shown) = 5.81
2) CCC(C)n1ncn(-c2ccc(N3CCN(c4ccc(OCC5COC(Cn6cncn6)(c6ccc(Cl)cc6Cl)O5)cc4)CC3)cc2)c1=O (stereo not shown) = 6.44
3) O[C@@H](COc1cccc2ncccc12)CN1CCN([C@@H]2c3ccccc3[C@@H]3[C@H](c4ccccc42)C3(F)F)CC1 = 7.30
4) Cc1ccc(-c2ncc(Cl)cc2-c2ccc(S(C)(=O)=O)cc2)cn1 = 4.81
5) CCCc1nc2c(C)cc(-c3nc4ccccc4n3C)cc2n1Cc1ccc(-c2ccccc2C(=O)O)cc1 = 5.39

Challenge: What value of pIC50 has been recorded for this entry: "COCC(=O)O[C@]1(CCN(C)CCCc2nc3ccccc3[nH]2)CCc2cc(F)ccc2[C@@H]1C(C)C"
Response given: 5.32

Challenge: What value of pIC50 has been recorded for this entry: "CC(C)(C)NC(=O)[C@@H]1C[C@@H]2CCCC[C@@H]2CN1C[C@@H](O)[C@H](Cc1ccccc1)NC(=O)[C@H](CC(N)=O)NC(=O)c1ccc2ccccc2n1"
Response given: 4.91

###

Target: rat Mdr1a (Rattus norvegicus, UniProt Q6PSM0)
Test: Bidirectional transport assay, efflux ratio in Abcb1KO-MDCKII rMDR1 cells
Conditions: rat, pH 7.4
attributeMeasured: efflux ratio at 120 min, 1 µM
# respond with the number and nothing more

Check out these entries, answers already filled in.
1) N=C(N)N/N=C/c1c(Cl)cccc1Cl [Guanabenz] = 0.85
2) Cc1nccn1CC1CCc2c(c3ccccc3n2C)C1=O (stereo not shown) [Ondansetron] = 7.62

Challenge: Form: Entry = CCNc1nc(Cl)nc(NC(C)C)n1 [Atrazine] | System = rat Mdr1a (Rattus norvegicus, UniProt Q6PSM0) | efflux ratio at 120 min, 1 µM = ____
Response given: 0.46

###

Overview of recorded pIC50 for various compounds
Target: rat Mdr1a (Rattus norvegicus)
Experiment: Inhibition of 3H-digoxin or 3H-quinidine bidirectional transport in rMDR1 cells
Format: cell-based
Set-up: rat Mdr1a (NM_133401.1); expressed in transfected cells; host or cells: Abcb1KO-MDCKII (canine kidney, endogenous Abcb1 knocked out), transduced, single-cell clone
Conditions: Inhibition of quinidine transport IC50±SD, rMDR1, probe 3H-quinidine 1 µM, 30 min; IC50 from ER
// pIC50 is dimensionless: -log10 of concentration (M)

1) CC(C)(C)NC(=O)[C@@H]1C[C@@H]2CCCC[C@@H]2CN1C[C@@H](O)[C@H](Cc1ccccc1)NC(=O)[C@H](CC(N)=O)NC(=O)c1ccc2ccccc2n1 = 4.91
2) COCC(=O)O[C@]1(CCN(C)CCCc2nc3ccccc3[nH]2)CCc2cc(F)ccc2[C@@H]1C(C)C = 5.95
3) CCOC(=O)C1=C(C)NC(C)=C(C(=O)OC)C1c1cccc([N+](=O)[O-])c1 (stereo not drawn) = 5.20
4) CN(C)C(=O)C(CCN1CCC(O)(c2ccc(Cl)cc2)CC1)(c1ccccc1)c1ccccc1 [Loperamide] = 6.00
5) COc1ccccc1OCCNCC(O)COc1cccc2[nH]c3ccccc3c12 (stereo not drawn) = 6.00
6) CCCc1nc2c(C)cc(-c3nc4ccccc4n3C)cc2n1Cc1ccc(-c2ccccc2C(=O)O)cc1 = 5.57
7) CCOC(=O)C1=C(C)NC(C)=C(C(=O)OC)C1c1cccc(Cl)c1Cl (stereo not drawn) = 4.39
8) COC(=O)C1=C(C)NC(C)=C(C(=O)OC(C)C)C1c1cccc2nonc12 (stereo not drawn) = 4.87

We now examine a further compound.
Challenge: Form: Entry = Cc1ccccc1C(=O)Nc1ccc(C(=O)N2CCCC(O)c3cc(Cl)ccc32)c(C)c1 (stereo not drawn) | System = rat Mdr1a (Rattus norvegicus) | pIC50 = ____
Response given: 5.38

###

Molecular target: human BCRP (Homo sapiens, UniProt Q9UNQ0)
Assay: Bidirectional transport assay, efflux ratio in MDCKII-BCRP cells
Settings: human, pH 7.4
Experimental: Eluent A consisted of 0.1% formic acid in water, eluent B consisted of 0.1% formic acid in acetonitrile. Then, 10 µL samples were injected into the HPLC-MS/MS system. Mass spectrometric detection was performed in SRM mode, and ion transitions for each analyte were optimized during method development. Samples were analyzed in pools, with each pool containing three to four analytes.
Would you mind labelling by efflux ratio at 120 min, 1 µM? At or over 1 is yes, under is no.

1) COc1cc([C@@H]2c3cc4c(cc3[C@@H](O[C@@H]3O[C@@H]5CO[C@@H](C)O[C@H]5[C@H](O)[C@H]3O)[C@H]3COC(=O)[C@H]23)OCO4)cc(OC)c1O [Etoposide] = yes
2) CC(=O)O[C@H]1C(=O)[C@@]2(C)[C@H]([C@H](OC(=O)c3ccccc3)[C@]3(O)C[C@H](OC(=O)[C@H](O)[C@@H](NC(=O)c4ccccc4)c4ccccc4)C(C)=C1C3(C)C)[C@]1(OC(C)=O)CO[C@@H]1C[C@@H]2O = yes
3) CCN(CC)C(=O)/C(C#N)=C/c1cc(O)c(O)c([N+](=O)[O-])c1 = yes
4) CC/C(=C(\c1ccccc1)c1ccc(OCCN(C)C)cc1)c1ccccc1 = no
5) COCCc1ccc(OCC(O)CNC(C)C)cc1 (stereo not shown) = no

Challenge: Hello, I need to know if "C[C@]12C=CC(=O)C=C1CC[C@@H]1[C@@H]2C(=O)C[C@@]2(C)[C@H]1CC[C@]2(O)C(=O)CO" has measured efflux ratio at 120 min, 1 µM not below 1. Thanks!
Response given: yes

Challenge: Hello, I need to know if CN(C)CCC=C1c2ccccc2COc2ccccc21 [Doxepin] has measured efflux ratio at 120 min, 1 µM not below 1. Thanks!
Response given: no
